# System: 677734-321-R-J1-PDC complex spheroid viability
# ASSAY_INFO: Anticancer human tumor 677734-321-R-J1-PDC patient-derived soft tissue sarcoma cell line growth inhibition [POLQ]
# PARTICULARS: second compound 0.316 µM; first compound 0.0316 µM; active compounds read low

>  <MOLECULE>
COc1ccc([C@@H](O)c2cc(-c3ncnc4cc(N5CCOCC5)ccc34)c(F)cc2Cl)nn1 + COC1C(OC(N)=O)C(O)C(Oc2ccc3c(O)c(NC(=O)c4ccc(O)c(CC=C(C)C)c4)c(=O)oc3c2C)OC1(C)C

>  <viability, T/C>
110%

$$$$
>  <MOLECULE>
O=C(Nc1ccc(O)c(NS(=O)(=O)c2ccc(F)cc2)c1)c1ccc(-c2ccccc2)cc1 + Nc1ccc(C#CCN(C(=O)Cc2ncc(C(F)(F)F)cc2C(F)(F)F)c2ccc(F)cc2)nn1

>  <viability, T/C>
104%

$$$$
>  <MOLECULE>
COc1cccc(OCCCN)c1-c1cc(Nc2cnc(C#N)cn2)n[nH]1 + Nc1ccc(C#CCN(C(=O)Cc2ncc(C(F)(F)F)cc2C(F)(F)F)c2ccc(F)cc2)nn1

>  <viability, T/C>
5.86%

$$$$
>  <MOLECULE>
C#Cc1c(F)ccc2cc(O)cc(-c3ncc4c(N5CC6CCC(C5)N6)nc(OCC56CCCN5CC(F)C6)nc4c3F)c12 (stereo not given) + Cc1cccc(N(C)C(=O)C2C(O)CCN2c2nc(C)cc(C(F)(F)F)c2C#N)c1

>  <viability, T/C>
118%

$$$$
>  <MOLECULE>
CC[C@@]1(O)C(=O)OCc2c1cc1n(c2=O)Cc2cc3c(CN(C)C)c(O)ccc3nc2-1 + COC1C(OC(N)=O)C(O)C(Oc2ccc3c(O)c(NC(=O)c4ccc(O)c(CC=C(C)C)c4)c(=O)oc3c2C)OC1(C)C

>  <viability, T/C>
39.3%

$$$$

====

# Test system: 677734-321-R-J1-PDC complex spheroid viability
# ASSAY_INFO: Anticancer human tumor 677734-321-R-J1-PDC cell line growth inhibition [POLQ];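 further: spheroids exposed to compounds for one week; 100% = vehicle DMSO treated spheroids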
# PARTICULARS: second compound 3.16 µM; first compound 10 µM; active compounds read low
Lab note: compare viability, T/C with 10%, writing rule met if less and rule not met if equal or more.

>  <COMPOUND>
CC(C)n1c(=O)n(C)c2cnc3cc(F)c(-c4ccc(OCCCN5CCCCC5)nc4)cc3c21 + Cc1cccc(N(C)C(=O)C2C(O)CCN2c2nc(C)cc(C(F)(F)F)c2C#N)c1

>  <QUALITATIVE_LABEL>
rule not met

$$$$
>  <COMPOUND>
CCc1cc2c(N3CCc4c(cc(Cn5ccnc5)cc4-c4cn(C)nc4C(F)(F)F)C3=O)ccnc2c(OC)n1 + Cc1cccc(N(C)C(=O)C2C(O)CCN2c2nc(C)cc(C(F)(F)F)c2C#N)c1

>  <QUALITATIVE_LABEL>
rule not met

$$$$
>  <COMPOUND>
CC(C)n1c(=O)n(C)c2cnc3cc(F)c(-c4ccc(OCCCN5CCCCC5)nc4)cc3c21 + Nc1ccc(C#CCN(C(=O)Cc2ncc(C(F)(F)F)cc2C(F)(F)F)c2ccc(F)cc2)nn1

>  <QUALITATIVE_LABEL>
rule not met

$$$$
>  <COMPOUND>
C#Cc1c(F)ccc2cc(O)cc(-c3ncc4c(N5CC6CCC(C5)N6)nc(OCC56CCCN5CC(F)C6)nc4c3F)c12 (stereo not given) + COC1C(OC(N)=O)C(O)C(Oc2ccc3c(O)c(NC(=O)c4ccc(O)c(CC=C(C)C)c4)c(=O)oc3c2C)OC1(C)C

>  <QUALITATIVE_LABEL>
rule not met

$$$$
>  <COMPOUND>
CC1COCCN1c1cc(-c2ccnn2C)c2ccnc(-c3ccn[nH]3)c2n1 (stereo not given) + Nc1ccc(C#CCN(C(=O)Cc2ncc(C(F)(F)F)cc2C(F)(F)F)c2ccc(F)cc2)nn1

>  <QUALITATIVE_LABEL>
rule met

$$$$
>  <COMPOUND>
C#Cc1c(F)ccc2cc(O)cc(-c3ncc4c(N5CC6CCC(C5)N6)nc(OCC56CCCN5CC(F)C6)nc4c3F)c12 (stereo not given) + Cc1cccc(N(C)C(=O)C2C(O)CCN2c2nc(C)cc(C(F)(F)F)c2C#N)c1

>  <QUALITATIVE_LABEL>
rule not met

$$$$
>  <COMPOUND>
COc1cc(C2c3cc4c(cc3C(OC3OC5COC(C)OC5C(O)C3O)C3COC(=O)C23)OCO4)cc(OC)c1O (stereo not given) + COC1C(OC(N)=O)C(O)C(Oc2ccc3c(O)c(NC(=O)c4ccc(O)c(CC=C(C)C)c4)c(=O)oc3c2C)OC1(C)C

>  <QUALITATIVE_LABEL>
rule met

$$$$
>  <COMPOUND>
Nc1ccn(C2OC(CO)C(O)C2(F)F)c(=O)n1 (stereo not given) + COC1C(OC(N)=O)C(O)C(Oc2ccc3c(O)c(NC(=O)c4ccc(O)c(CC=C(C)C)c4)c(=O)oc3c2C)OC1(C)C

>  <QUALITATIVE_LABEL>
rule met

$$$$
>  <COMPOUND>
COc1cc2cc(C(=O)CCC(=O)O)sc2cc1OC + Nc1ccc(C#CCN(C(=O)Cc2ncc(C(F)(F)F)cc2C(F)(F)F)c2ccc(F)cc2)nn1

>  <QUALITATIVE_LABEL>
rule not met

$$$$
>  <COMPOUND>
CC1COCCN1c1cc(C2(O)CC3CCC(C2)O3)c2cnn(-c3ccn[nH]3)c2n1 (stereo not given) + Nc1ccc(C#CCN(C(=O)Cc2ncc(C(F)(F)F)cc2C(F)(F)F)c2ccc(F)cc2)nn1

>  <QUALITATIVE_LABEL>
rule met

$$$$
>  <COMPOUND>
COc1cc2cc(C(=O)CCC(=O)O)sc2cc1OC + COC1C(OC(N)=O)C(O)C(Oc2ccc3c(O)c(NC(=O)c4ccc(O)c(CC=C(C)C)c4)c(=O)oc3c2C)OC1(C)C

>  <QUALITATIVE_LABEL>
rule not met

$$$$
>  <COMPOUND>
CNCc1ccc(-c2[nH]c3cc(F)cc4c3c2CCNC4=O)cc1 + COC1C(OC(N)=O)C(O)C(Oc2ccc3c(O)c(NC(=O)c4ccc(O)c(CC=C(C)C)c4)c(=O)oc3c2C)OC1(C)C

>  <QUALITATIVE_LABEL>
rule not met

$$$$
>  <COMPOUND>
CC1COCCN1c1cc(-c2ccnn2C)c2ccnc(-c3ccn[nH]3)c2n1 (stereo not given) + COC1C(OC(N)=O)C(O)C(Oc2ccc3c(O)c(NC(=O)c4ccc(O)c(CC=C(C)C)c4)c(=O)oc3c2C)OC1(C)C

>  <QUALITATIVE_LABEL>
rule not met

$$$$
>  <COMPOUND>
CC(C)n1c(=O)n(C)c2cnc3cc(F)c(-c4ccc(OCCCN5CCCCC5)nc4)cc3c21 + COC1C(OC(N)=O)C(O)C(Oc2ccc3c(O)c(NC(=O)c4ccc(O)c(CC=C(C)C)c4)c(=O)oc3c2C)OC1(C)C

>  <QUALITATIVE_LABEL>
rule not met

$$$$
>  <COMPOUND>
CC1COCCN1c1cc(C2(O)CC3CCC(C2)O3)c2cnn(-c3ccn[nH]3)c2n1 (stereo not given) + COC1C(OC(N)=O)C(O)C(Oc2ccc3c(O)c(NC(=O)c4ccc(O)c(CC=C(C)C)c4)c(=O)oc3c2C)OC1(C)C

>  <QUALITATIVE_LABEL>
rule not met

$$$$
>  <COMPOUND>
CCCS(=O)(=O)Nc1ccc(F)c(C(=O)c2c[nH]c3ncc(-c4ccc(Cl)cc4)cc23)c1F + COC1C(OC(N)=O)C(O)C(Oc2ccc3c(O)c(NC(=O)c4ccc(O)c(CC=C(C)C)c4)c(=O)oc3c2C)OC1(C)C

>  <QUALITATIVE_LABEL>
rule not met

$$$$
>  <COMPOUND>
CC1COCCN1c1cc(C2(S(C)(=N)=O)CC2)nc(-c2ccnc3[nH]ccc23)n1 (stereo not given) + COC1C(OC(N)=O)C(O)C(Oc2ccc3c(O)c(NC(=O)c4ccc(O)c(CC=C(C)C)c4)c(=O)oc3c2C)OC1(C)C

>  <QUALITATIVE_LABEL>
rule not met

$$$$
>  <COMPOUND>
Nc1ccn(C2OC(CO)C(O)C2(F)F)c(=O)n1 (stereo not given) + Cc1cccc(N(C)C(=O)C2C(O)CCN2c2nc(C)cc(C(F)(F)F)c2C#N)c1

>  <QUALITATIVE_LABEL>
rule not met

$$$$
>  <COMPOUND>
O=C(c1cc(Cc2n[nH]c(=O)c3ccccc23)ccc1F)N1CCN(C(=O)C2CC2)CC1 + COC1C(OC(N)=O)C(O)C(Oc2ccc3c(O)c(NC(=O)c4ccc(O)c(CC=C(C)C)c4)c(=O)oc3c2C)OC1(C)C

>  <QUALITATIVE_LABEL>
rule not met

$$$$

# credit: PubChem BioAssay AID1963842
